tested on: Enterobacter cloacae; assay: Antibacterial activity against Enterobacter cloacae 20364 expressing aminoglycoside-3'-phosphotransferase-1 assessed as growth inhibition measured after overnight incubation by two-fold broth dilution method; assay type: functional
MEASURE: MIC

# count of solved cases: 2
- NC[C@@H]1O[C@@H](O[C@H]2[C@H](O)[C@@H](O[C@H]3O[C@H](CO)[C@@H](O)[C@H](N)[C@H]3O)[C@H](N)C[C@@H]2N)[C@@H](O)[C@H](O)[C@H]1O [KANAMYCIN A]: > 125 µg/mL
- CNC[C@H]1O[C@H](O[C@H]2[C@H](O)[C@@H](O[C@H]3O[C@H](CO)[C@@H](O)[C@H](NC)[C@H]3O)[C@H](N)C[C@@H]2N)[C@H](N)[C@@H](O)[C@@H]1O: 63 µg/mL

Input line: I am curious: what MIC value has been reported for CCNC[C@H]1O[C@H](O[C@H]2[C@H](O)[C@@H](O[C@H]3O[C@H](CO)[C@@H](O)[C@H](NCC)[C@H]3O)[C@H](N)C[C@@H]2N)[C@H](O)[C@@H](O)[C@@H]1O ?
Output line: > 125 µg/mL

Input line: I am curious: what MIC value has been reported for CNC[C@H]1O[C@H](O[C@H]2[C@H](O)[C@@H](O[C@H]3O[C@H](CO)[C@@H](O)[C@H](NC)[C@H]3O)[C@H](N)C[C@@H]2N)[C@H](O)[C@@H](O)[C@@H]1O ?
Output line: > 125 µg/mL

Input line: I am curious: what MIC value has been reported for N[C@@H]1C[C@H](N)[C@@H](O[C@H]2O[C@@H]3CNC(=O)O[C@H]3[C@H](O)[C@H]2O)[C@H](O)[C@H]1O[C@H]1O[C@H](CO)[C@@H](O)[C@@H]2NC(=O)O[C@@H]12 ?
Output line: 125 µg/mL

Input line: I am curious: what MIC value has been reported for NC[C@H]1O[C@H](O[C@H]2[C@H](O)[C@@H](O[C@H]3O[C@H](CO)[C@@H](O)[C@H](N)[C@H]3O)[C@H](N)C[C@@H]2N)[C@H](N)[C@@H](O)[C@@H]1O [BEKANAMYCIN] ?
Output line: > 125 µg/mL

The measured values listed here are drawn from ChEMBL document CHEMBL3228019.
